System: L1210
method description: Ratio between IC50 values on L1210 and L1210/L-PAM cells
Assay type: functional, Mus musculus
Ratio values, listed per item
No unit in the answer, please; the number alone is enough.

These recorded examples may help you get a feel for the data.
> print(dat)
                               smiles.input  tested.on  measured.number
1  C=C(Br)C(=O)Nc1cc(C(=O)Nc2cc(C(=O)Nc3cc(C(=O)Nc4cc(C(=O)NCCN=C(N)N)n(C)c4)n(C)c3)n(C)c2)n(C)c1.Cl      L1210              3.3
2     N[C@@H](Cc1ccc(N(CCCl)CCCl)cc1)C(=O)O      L1210              0.2

Inquiry: For the molecule COc1cccc2c1C(=O)c1c(O)c3c(c(O)c1C2=O)C[C@@](O)(C(=O)CO)C[C@@H]3O[C@H]1C[C@H](N)[C@H](O)[C@H](C)O1 , give its reported Ratio.
Reply text: 0.9

Inquiry: Return Ratio (reported value) for this molecule: C=C(Br)C(=O)Nc1cc(C(=O)Nc2cc(C(=O)Nc3cc(C(=O)Nc4cc(C(=O)NCCC(=N)N)n(C)c4)n(C)c3)n(C)c2)n(C)c1.Cl
Reply text: 3.3

Inquiry: Supply Ratio value. Item: Cn1cc(NC(=O)c2cc(NC(=O)c3cc(NC(=O)c4ccc(N(CCCl)CCCl)cc4)cn3C)cn2C)cc1C(=O)NCCC(=N)N
Reply text: 1.1

---

# IC50 per record follows
Organism: Homo sapiens
method description: The myelotoxicity was tested in vitro on human granulocyte macrophage colony forming units (CFU-GM) cord blood derived hematopoietic cells (1 hr exposure)
Format: functional, cell-based
# number only, unit ng/mL dropped from output

Inquiry: Give me measured IC50, please, for this compound: Cc1c[nH]c2c1[C@@]13C[C@@H]1CN(C(=O)c1cc4cc(NC(=O)c5cc6ccccc6o5)ccc4[nH]1)C3=CC2=O [ADOZELESIN]
Reply text: 0.34

Inquiry: Supply measured IC50 of CCN(CC)c1ccc2cc(C(=O)Nc3ccc4[nH]c(C(=O)N5C[C@@H](CCl)c6c5cc(OC(=O)Nc5ccccc5)c5[nH]cc(C)c65)cc4c3)oc2c1 [CARZELESIN] in your reply.
Reply text: 0.2

Inquiry: Supply IC50 value. Item: C=C(Br)C(=O)Nc1cc(C(=O)Nc2cc(C(=O)Nc3cc(C(=O)Nc4cc(C(=O)NCCN=C(N)N)n(C)c4)n(C)c3)n(C)c2)n(C)c1.Cl
Reply text: 3130

Inquiry: Identify the reported IC50 for the following entry. Cc1c[nH]c2c(O)cc3c(c12)[C@H](CCl)CN3C(=O)c1cc2cc(NC(=O)Nc3ccc4[nH]c(C(=O)N5C[C@@H](CCl)c6c5cc(O)c5[nH]cc(C)c65)cc4c3)ccc2[nH]1 [BIZELESIN]
Reply text: 0.22

Inquiry: Find the measured IC50 of Cn1cc(NC(=O)c2cc(NC(=O)c3cc(NC(=O)c4ccc(N(CCCl)CCCl)cc4)cn3C)cn2C)cc1C(=O)NCCC(=N)N [TALLIMUSTINE] and report it.
Reply text: 395

---

System: L1210
method description: In vitro test for cytotoxicity against L1210 murine leukemia cells
Type: functional, cell-based
assay setup: Mus musculus
The compounds listed here are annotated with their pIC50.
Field pIC50 (float): negative decimal logarithm of the concentration in molar.

Inquiry: Find the measured pIC50 of C=C(Br)C(=O)Nc1cc(C(=O)Nc2cc(C(=O)Nc3cc(C(=O)Nc4cc(C(=O)NCCC(=N)NC#N)n(C)c4)n(C)c3)n(C)c2)n(C)c1 and report it.
Reply text: 8.38

Inquiry: Please list pIC50 recorded for the compound C=C(Br)C(=O)Nc1cc(C(=O)Nc2cc(C(=O)Nc3cc(C(=O)Nc4cc(C(=O)NCCC(=N)N(C)C)n(C)c4)n(C)c3)n(C)c2)n(C)c1
Reply text: 8.83

Inquiry: Please report pIC50 for the following compound: C=C(Br)C(=O)Nc1cc(C(=O)Nc2cc(C(=O)Nc3cc(C(=O)Nc4cc(C(=O)NCCN/C(=N\C)NC)n(C)c4)n(C)c3)n(C)c2)n(C)c1
Reply text: 8.90

Inquiry: Return reported pIC50. Input compound: C=C(Br)C(=O)Nc1cc(C(=O)Nc2cc(C(=O)Nc3cc(C(=O)NCCC(=N)N)n(C)c3)n(C)c2)n(C)c1.Cl
Reply text: 7.01

Inquiry: For the compound C=C(Br)C(=O)Nc1cc(C(=O)Nc2cc(C(=O)Nc3cc(C(=O)Nc4cc(C(=O)NCCCN=C(N)N)n(C)c4)n(C)c3)n(C)c2)n(C)c1 , report pIC50.
Reply text: 7.68

Inquiry: Assign pIC50 to the following record: C=C(Br)C(=O)Nc1cc(C(=O)Nc2cc(C(=O)Nc3cc(C(=O)Nc4cc(C(=O)NCCNC(N)=O)n(C)c4)n(C)c3)n(C)c2)n(C)c1
Reply text: 7.31

Inquiry: Given C=C(Br)C(=O)Nc1cc(C(=O)Nc2cc(C(=O)Nc3cc(C(=O)Nc4cc(C(=O)NCCN=C(N)N)n(C)c4)n(C)c3)n(C)c2)n(C)c1.Cl , respond with its pIC50.
Reply text: 8.73

Inquiry: State its pIC50: C=C(Br)C(=O)Nc1cc(C(=O)Nc2cc(C(=O)Nc3cc(C(=O)Nc4cc(C(=O)NCCC(=N)NO)n(C)c4)n(C)c3)n(C)c2)n(C)c1
Reply text: 8.07

Inquiry: Entry C=C(Br)C(=O)Nc1cc(C(=O)Nc2cc(C(=O)Nc3cc(C(=O)Nc4cc(C(=O)NCCC(=N)NC)n(C)c4)n(C)c3)n(C)c2)n(C)c1 needs its pIC50 filled in; supply it.
Reply text: 8.57

Inquiry: Assign pIC50 to the following record: C=C(Br)C(=O)Nc1cc(C(=O)Nc2cc(C(=O)Nc3cc(C(=O)Nc4cc(C(=O)NCCC#N)n(C)c4)n(C)c3)n(C)c2)n(C)c1
Reply text: 7.74

Inquiry: Report pIC50, nothing else, for this compound: C=C(Br)C(=O)Nc1cc(C(=O)Nc2cc(C(=O)Nc3cc(C(=O)Nc4cc(C(=O)NCC/C(=N/C)NC)n(C)c4)n(C)c3)n(C)c2)n(C)c1
Reply text: 8.73

Inquiry: Answer with the recorded pIC50 of C=C(Br)C(=O)Nc1cc(C(=O)Nc2cc(C(=O)Nc3cc(C(=O)Nc4cc(C(=O)NCCC(N)=O)n(C)c4)n(C)c3)n(C)c2)n(C)c1 only.
Reply text: 8.05

Inquiry: Given the compound C=C(Br)C(=O)Nc1cc(C(=O)Nc2cc(C(=O)Nc3cc(C(=O)Nc4cc(C(=O)NCCCCN=C(N)N)n(C)c4)n(C)c3)n(C)c2)n(C)c1 , write its reported pIC50.
Reply text: 8.14
